Test system: CCRF-CEM leukemia
Assay Details: NCI tumour cell line growth inhibition, 48 h
Assay Readout: TGI

CN(C(=N)c1ccccc1)c1ccccc1: > 100 µM
CC1(C)CC(=O)c2c([nH]c(=S)c(C#N)c2-c2ccc(Br)cc2)C1: > 100 µM
C/C(=N\NC(=O)c1cccc(S(=O)(=O)N2CCN(C)CC2)c1)c1cc(Cl)ccc1O: > 100 µM

Go through the list and state TGI for each entry.
1. NNC(=O)CC(=O)Nc1ccccc1Cl
2. COc1cc(-c2nn(-c3ccc(NC(=O)Nc4ccc(Cl)c(C(F)(F)F)c4)cc3)cc2-c2ccncc2)ccc1Cl
3. ClCCN(CC#CCCCC#CCN(CCCl)CCCl)CCCl
4. Nc1ncnc2c1ncn2C1OC(CO)CC1O (configuration not stated)

Reply:
["> 100 µM", "7.01 µM", "10.6 µM", "> 100 µM"]

Where do these numbers come from? They come from PubChem BioAssay (NCI).
